molecular target: V. harveyi wild-type CqsS receptor (Vibrio campbellii, UniProt A7N6S2); test: cell-based; details: EC50, V. harveyi wild-type CqsS
Sequence (A7N6S2 whole entry): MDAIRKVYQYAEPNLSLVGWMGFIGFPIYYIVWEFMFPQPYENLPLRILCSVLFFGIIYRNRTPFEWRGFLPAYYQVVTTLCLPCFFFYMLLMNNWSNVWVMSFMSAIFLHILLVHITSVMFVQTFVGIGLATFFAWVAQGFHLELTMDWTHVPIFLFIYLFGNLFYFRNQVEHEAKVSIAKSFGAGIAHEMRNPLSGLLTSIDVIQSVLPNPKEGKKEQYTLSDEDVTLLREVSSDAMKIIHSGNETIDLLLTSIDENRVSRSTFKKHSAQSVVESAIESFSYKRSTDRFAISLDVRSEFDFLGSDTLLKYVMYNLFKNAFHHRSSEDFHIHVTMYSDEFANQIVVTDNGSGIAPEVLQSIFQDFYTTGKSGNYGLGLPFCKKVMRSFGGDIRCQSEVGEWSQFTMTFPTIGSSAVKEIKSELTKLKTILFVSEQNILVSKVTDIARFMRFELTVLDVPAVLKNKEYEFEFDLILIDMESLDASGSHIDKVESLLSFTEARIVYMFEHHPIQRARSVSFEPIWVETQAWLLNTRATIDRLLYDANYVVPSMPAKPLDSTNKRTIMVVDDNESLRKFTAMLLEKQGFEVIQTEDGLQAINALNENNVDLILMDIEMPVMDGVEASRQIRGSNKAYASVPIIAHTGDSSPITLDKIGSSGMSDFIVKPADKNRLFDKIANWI
REPORTED METRIC: pEC50
Quick note: pEC50 values are minus log10 of concentrations in mol/L.

// query pEC50 value for entry CCCCCCCC(=O)C(O)CC (stereo not shown) [C8-CAI-1, 3-hydroxyundecan-4-one]
5.30
